# tested_system: T1, MC1-R of B-16 mouse melanoma cells (mouse, UniProt Q01727 1-315)
# T1 construct: whole, on cells; also called B16-F10 (MC1-R)
# T1 sequence (Q01727 whole entry): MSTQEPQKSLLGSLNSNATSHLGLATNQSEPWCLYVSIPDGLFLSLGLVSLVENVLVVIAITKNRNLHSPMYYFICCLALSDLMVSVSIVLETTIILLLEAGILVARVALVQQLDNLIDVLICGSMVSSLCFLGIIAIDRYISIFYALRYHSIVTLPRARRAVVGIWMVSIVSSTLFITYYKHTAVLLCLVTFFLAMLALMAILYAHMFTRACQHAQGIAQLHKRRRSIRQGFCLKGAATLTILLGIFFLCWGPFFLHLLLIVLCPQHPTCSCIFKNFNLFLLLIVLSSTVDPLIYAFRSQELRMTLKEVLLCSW
# experimental_protocol: radioligand competition, [I125]-NDP-α-MSH, B-16 membranes
Positions of bridges follow the written chain, without caps; N, C: chain ends. Non-standard residues stand in square brackets, D forms with d. 1Nal = N[C@@H](Cc1cccc2ccccc12)C(=O)O; Nle = CCCC[C@H](N)C(=O)O

binder: Ac-[Nle]DW[dF]R[1Nal]K-NMe2 (lactam 2-7, also called Compound No. 36) [Ac-Nle-cyclo(-Asp-Trp-D-Phe-Arg-Nal 1-Lys)-N(CH3)2]
Ki [µM]: 0.012
